target: serotoninergic 5-HT1A receptor (Homo sapiens, UniProt P08908); assay: Binding assay 5-HT1A (h), [3H]8-OH-DPAT, HEK-293 cells; set-up: expressed in transfected cells; host or cells: HEK-293 cells; conditions: read-out: 5-HT1A
Sequence (P08908 whole entry): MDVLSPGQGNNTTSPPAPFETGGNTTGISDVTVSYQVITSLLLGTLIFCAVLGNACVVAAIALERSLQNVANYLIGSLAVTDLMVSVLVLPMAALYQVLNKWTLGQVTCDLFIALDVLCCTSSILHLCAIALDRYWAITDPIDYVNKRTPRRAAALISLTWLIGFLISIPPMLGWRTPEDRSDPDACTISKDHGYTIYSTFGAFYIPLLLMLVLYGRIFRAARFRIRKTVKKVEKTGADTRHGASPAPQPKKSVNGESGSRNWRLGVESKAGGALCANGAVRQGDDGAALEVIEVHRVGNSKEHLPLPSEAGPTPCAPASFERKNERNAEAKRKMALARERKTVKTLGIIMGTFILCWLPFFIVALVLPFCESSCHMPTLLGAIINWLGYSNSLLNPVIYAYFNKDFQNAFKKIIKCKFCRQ
Experimental Endpoint: inhibition at 1 µM

Response field inhibition at 1 µM (serotoninergic 5-HT1A receptor (Homo sapiens, UniProt P08908)) for item Cc1cc(S(=O)(=O)NCCCCN2CCC(c3noc4cc(F)ccc34)CC2)c(C)s1 [Compound 309] : 64%

Value (inhibition at 1 µM, serotoninergic 5-HT1A receptor (Homo sapiens, UniProt P08908)) for record O=S(=O)(NCCCCN1CCC(c2noc3cc(F)ccc23)CC1)c1cnc2ccccn12 [Compound 322] = 43%

With serotoninergic 5-HT1A receptor (Homo sapiens, UniProt P08908) as the test system, O=S(=O)(NCCCCN1CCC(c2noc3cc(F)ccc23)CC1)c1c[nH]c2ncccc12 [Compound 323] showed inhibition at 1 µM of 45%

Known value: serotoninergic 5-HT1A receptor (Homo sapiens, UniProt P08908) inhibition at 1 µM of the molecule O=c1[nH]c2cccc(N3CCN(CCCNS(=O)(=O)c4cccc(F)c4)CC3)c2[nH]1 [Compound 176] equals 97%

Field inhibition at 1 µM (system: serotoninergic 5-HT1A receptor (Homo sapiens, UniProt P08908)) for entry COc1cccc(S(=O)(=O)NCCCN2CCN(c3nsc4ccccc34)CC2)c1 [Compound 255] = 93%

Cc1cccc(S(=O)(=O)NCCCCN2CCC(c3noc4cc(F)ccc34)CC2)c1 [Compound 19] on serotoninergic 5-HT1A receptor (Homo sapiens, UniProt P08908) gives inhibition at 1 µM = 64%

Reported serotoninergic 5-HT1A receptor (Homo sapiens, UniProt P08908) inhibition at 1 µM for item O=S(=O)(NCCCN1CCN(c2nsc3ccccc23)CC1)c1ccc(F)c(Cl)c1 [Compound 64] was 99%

---
# COc1cccc(S(=O)(=O)NCCCCN2CCC(c3noc4cc(F)ccc34)CC2)c1 [Compound 300] with serotoninergic 5-HT1A receptor (Homo sapiens, UniProt P08908): inhibition at 1 µM is 80%
